EC50 (nM) direct cellular killing, U937 listing for selected binders.
Target: T1, CLL1 on CLL1-expressing cells (U937, HL60) (human, UniProt Q5QGZ9 1-265)
T1 sequence (looked up): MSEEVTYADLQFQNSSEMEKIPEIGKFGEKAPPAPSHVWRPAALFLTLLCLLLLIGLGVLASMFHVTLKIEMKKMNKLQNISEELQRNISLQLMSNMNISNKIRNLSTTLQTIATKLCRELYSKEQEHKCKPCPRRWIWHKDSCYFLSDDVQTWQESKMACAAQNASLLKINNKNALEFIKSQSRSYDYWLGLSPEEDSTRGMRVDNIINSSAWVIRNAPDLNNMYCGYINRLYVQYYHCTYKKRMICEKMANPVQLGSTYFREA
Test: cell-based or functional assay
State the value, then name its unit.

// below: answered binders
{"binder": "ADC3-7 (antibody, human IgG1, kappa, V domains shown, conjugator-linker-payload on cysteine thiols after TCEP reduction; positions not given) VH: EVQLVQSGAEVKKPGASVKVSCKASGYSFTDYYMHWVRQAPGQGLEWIGRINPYAGAAFYSQNFKDRVTLTVDTSTSTAYLELSSLRSEDTAVYYCAIERGADLEGYAMDYWGQGTLVTVSS VL: DIQMTQSPSSLSASVGDRVTITCRASQSVSTSSYNYMHWYQQKPGKPPKLLIKYASNLESGVPSRFSGSGSGTDFTLTISSLQPEDFATYYCQHSWEIPLTFGQGTKVEIKR", "EC50 (nM) direct cellular killing, U937": "0.3 nM"}
{"binder": "ADC3-8 (antibody, human IgG1, kappa, V domains shown, conjugator-linker-payload on cysteine thiols after TCEP reduction; positions not given) VH: EVQLVQSGAEVKKPGASVKVSCKASGYSFTDYYMHWVRQAPGQGLEWIGRINPYAGAAFYSQNFKDRVTLTVDTSTSTAYLELSSLRSEDTAVYYCAIERGADLEGYAMDYWGQGTLVTVSS VL: DIQMTQSPSSLSASVGDRVTITCRASQSVSTSSYNYMHWYQQKPGKPPKLLIKYASNLESGVPSRFSGSGSGTDFTLTISSLQPEDFATYYCQHSWEIPLTFGQGTKVEIKR", "EC50 (nM) direct cellular killing, U937": "0.2 nM"}

Exam item: Supply EC50 (nM) direct cellular killing, U937 value. Item: ADC3-A (antibody, human IgG1, kappa, V domains shown, conjugator-linker-payload on cysteine thiols after TCEP reduction; positions not given) VH: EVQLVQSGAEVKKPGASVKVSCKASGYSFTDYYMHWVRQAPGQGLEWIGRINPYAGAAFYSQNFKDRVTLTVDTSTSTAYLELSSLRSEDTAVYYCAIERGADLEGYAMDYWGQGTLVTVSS VL: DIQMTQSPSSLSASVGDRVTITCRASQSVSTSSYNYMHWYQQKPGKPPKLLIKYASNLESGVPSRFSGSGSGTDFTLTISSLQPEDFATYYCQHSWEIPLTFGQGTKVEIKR
Marked response: 0.7 nM

Exam item: Supply EC50 (nM) direct cellular killing, U937 value. Item: ADC3-9 (antibody, human IgG1, kappa, V domains shown, conjugator-linker-payload on cysteine thiols after TCEP reduction; positions not given) VH: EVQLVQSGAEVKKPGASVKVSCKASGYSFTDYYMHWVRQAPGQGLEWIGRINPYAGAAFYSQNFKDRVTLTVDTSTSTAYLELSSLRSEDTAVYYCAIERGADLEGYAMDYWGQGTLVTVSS VL: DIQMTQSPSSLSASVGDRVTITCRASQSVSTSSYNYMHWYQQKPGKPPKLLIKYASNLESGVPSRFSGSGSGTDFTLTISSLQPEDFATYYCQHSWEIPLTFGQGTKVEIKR
Marked response: 0.6 nM
